# assayDetails: Safety assay (body weight, tolerability) in Ba/F3 KIF5B-RET cell line tumor model
# Format: in vivo
# measurementContext: 10 mg/kg p.o. QD × 14, day 0 (baseline)
Flag rule - Average weight g (x ± S), Day 0 of administration less than 20 g flags 1; the remaining entries get -1.

Prompt line: Dear colleague, could you confirm whether Average weight g (x ± S), Day 0 of administration of "CC(C)n1nc(-c2ccc(CC(=O)Nc3cc(C(C)(C)C(F)(F)F)on3)cc2)c2c(N)ncnc21" falls below 20 g? Thanks.
Response line: -1

Prompt line: Dear colleague, could you confirm whether Average weight g (x ± S), Day 0 of administration of "CC(C)n1nc(-c2ccc(CC(=O)Nc3cc(C(C)(C)C(F)(F)F)on3)c(F)c2)c2c(N)ncnc21" falls below 20 g? Thanks.
Response line: 1

---

# reported Ba/F3 FLT3-ITD^F691L Selectivity on parental generation; entries follow
# Tested on: Ba/F3 FLT3-ITD^F691L cells
# assayDetails: Cytotoxicity assay (CellTiter-Glo), Ba/F3 FLT3-ITD F691L
# Type: cell-based
# measurementContext: ratio of Ba/F3 parental IC50 to Ba/F3 FLT3-ITD^F691L IC50

Use these answered entries as a reference point.
CC(C)c1cc(-c2ccc(CC(=O)Nc3cc(C(C)(C)C(F)(F)F)on3)cc2)c2c(N)ncnn12 [Compound T-5] : 419.6
CC(C)n1nc(-c2ccc(NC(=O)Nc3cc(C(C)(C)C(F)(F)F)on3)cc2)c2c(N)ncnc21 [Compound T-2] : 115.3
CC(C)n1cc(-c2ccc(CC(=O)Nc3cc(C(C)(C)C(F)(F)F)on3)cc2)c2c(N)ncnc21 [Compound T-3] : 746.8
CC(C)c1nc(-c2ccc(CC(=O)Nc3cc(C(C)(C)C(F)(F)F)on3)cc2)c2c(N)ncnn12 [Compound T-10] : 57.3

The observed Ba/F3 FLT3-ITD^F691L Selectivity on parental generation for [2H]C([2H])([2H])C(n1nc(-c2ccc(CC(=O)Nc3cc(C(C)(C)C(F)(F)F)no3)cc2)c2c(N)ncnc21)C([2H])([2H])[2H] [Compound T-11] when tested with Ba/F3 FLT3-ITD^F691L cells stands at 404.9

The observed Ba/F3 FLT3-ITD^F691L Selectivity on parental generation for CC(C)n1nc(-c2ccc(NC(=O)Nc3cc(C(F)(F)F)ccc3F)cc2)c2c(N)ncnc21 [AD80, reference compound] when tested with Ba/F3 FLT3-ITD^F691L cells stands at 68.8

---

# reported Weight change rate (%), Day 14 of administration; entries follow
# assayDetails: Safety assay (body weight, tolerability) in Ba/F3 KIF5B-RET cell line tumor model
# Type: in vivo
# measurementContext: 10 mg/kg p.o. QD × 14, day 14
The answer is to be given in %; state only the numeric part.

Use these answered entries as a reference point.
CC(C)n1nc(-c2ccc(CC(=O)Nc3cc(C(C)(C)C(F)(F)F)no3)cc2)c2c(N)ncnc21 : 6.0
CC(C)n1nc(-c2ccc(CC(=O)Nc3cc(C(C)(C)C(F)(F)F)on3)cc2)c2c(N)ncnc21 : 3.4

// recorded Weight change rate (%), Day 14 of administration for "CC(C)n1cc(-c2ccc(CC(=O)Nc3cc(C(C)(C)C(F)(F)F)on3)cc2)c2c(N)ncnc21" : 9.8

// recorded Weight change rate (%), Day 14 of administration for "CC(C)n1nc(-c2ccc(CC(=O)Nc3cc(C(C)(C)C(F)(F)F)on3)c(F)c2)c2c(N)ncnc21" : 8.8

// recorded Weight change rate (%), Day 14 of administration for CC(C)n1nc(-c2ccc(NC(=O)Nc3cc(C(F)(F)F)ccc3F)cc2)c2c(N)ncnc21 [AD80, reference compound] : 12.7

// recorded Weight change rate (%), Day 14 of administration for "CC(C)n1nc(-c2ccc(NC(=O)Nc3cc(C(C)(C)C(F)(F)F)on3)cc2)c2c(N)ncnc21" : 8.1

---

# assayDetails: Safety assay (body weight, tolerability) in Ba/F3 KIF5B-RET^G810R cell line tumor model
# Type: in vivo
# measurementContext: 25 mg/kg p.o. QD × 13, day 0 (baseline)
measurementName: Average weight g (x ± S), Day 0 of administration (g)
The answer is to be given in g; state only the numeric part.

CC(C)n1nc(-c2ccc(CC(=O)Nc3cc(C(C)(C)C(F)(F)F)on3)c(F)c2)c2c(N)ncnc21 : 19.4
CC(C)n1nc(-c2ccc(NC(=O)Nc3cc(C(F)(F)F)ccc3F)cc2)c2c(N)ncnc21 [AD80, reference compound] : 19.9
CC(C)n1nc(-c2ccc(CC(=O)Nc3cc(C(C)(C)C(F)(F)F)no3)cc2)c2c(N)ncnc21 : 19.6

Then this compound:
// recorded Average weight g (x ± S), Day 0 of administration for "CC(C)n1nc(-c2ccc(CC(=O)Nc3cc(C(C)(C)C(F)(F)F)on3)cc2)c2c(N)ncnc21" : 20.3

---

# testedOn: Ba/F3 KIF5B-RET^G810R cells (Homo sapiens, UniProt P07949, G810R, cells depend on it)
# Construct: Ba/F3 KIF5B-RET^G810R IC50 (nM); other: CellTiter-Glo, 72 hrs; fused on or other part: P33176 (Kinesin-1 heavy chain)
# Sequence (P07949 whole entry G810R, the tested form may be a part): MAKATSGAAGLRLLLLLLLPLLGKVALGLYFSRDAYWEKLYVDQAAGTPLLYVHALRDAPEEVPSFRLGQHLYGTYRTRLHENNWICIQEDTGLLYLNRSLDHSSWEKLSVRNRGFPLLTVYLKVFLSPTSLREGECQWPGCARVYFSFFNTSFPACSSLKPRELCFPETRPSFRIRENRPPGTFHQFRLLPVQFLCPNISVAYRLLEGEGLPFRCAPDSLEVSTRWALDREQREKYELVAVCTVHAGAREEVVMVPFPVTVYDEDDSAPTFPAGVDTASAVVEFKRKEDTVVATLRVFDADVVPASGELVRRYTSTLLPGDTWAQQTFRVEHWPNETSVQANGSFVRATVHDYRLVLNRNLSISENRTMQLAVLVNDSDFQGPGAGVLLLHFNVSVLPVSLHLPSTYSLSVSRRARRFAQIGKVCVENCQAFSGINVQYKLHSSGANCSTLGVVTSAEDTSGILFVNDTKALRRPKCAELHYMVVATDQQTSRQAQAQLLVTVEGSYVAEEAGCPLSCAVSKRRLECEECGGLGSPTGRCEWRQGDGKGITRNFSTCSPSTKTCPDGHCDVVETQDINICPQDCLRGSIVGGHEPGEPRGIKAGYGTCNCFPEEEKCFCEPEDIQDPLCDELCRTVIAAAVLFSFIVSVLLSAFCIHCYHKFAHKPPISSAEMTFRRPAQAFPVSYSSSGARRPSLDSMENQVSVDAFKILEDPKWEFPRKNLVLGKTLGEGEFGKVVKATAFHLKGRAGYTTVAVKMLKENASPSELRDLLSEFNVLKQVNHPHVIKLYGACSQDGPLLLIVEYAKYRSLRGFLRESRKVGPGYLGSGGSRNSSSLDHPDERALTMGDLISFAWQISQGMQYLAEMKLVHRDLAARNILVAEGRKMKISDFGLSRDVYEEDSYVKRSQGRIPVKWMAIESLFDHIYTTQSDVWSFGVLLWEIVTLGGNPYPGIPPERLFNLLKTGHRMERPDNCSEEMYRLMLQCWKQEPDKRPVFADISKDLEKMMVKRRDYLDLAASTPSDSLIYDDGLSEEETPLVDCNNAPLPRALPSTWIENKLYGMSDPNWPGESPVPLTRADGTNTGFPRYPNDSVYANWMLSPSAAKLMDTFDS
# assayDetails: Cytotoxicity assay (CellTiter-Glo), Ba/F3 KIF5B-RET G810R
# Format: cell-based
# measurementContext: CellTiter-Glo, 72 hrs; read-out: Ba/F3 KIF5B-RET^G810R IC50
Flag rule - GI50 less than 4 nM flags 1; the remaining entries get -1.

Worked examples follow.
CC(C)n1nc(-c2ccc(CC(=O)Nc3cc(C(C)(C)C(F)(F)F)no3)cn2)c2c(N)ncnc21 [Compound T-9] : -1
[2H]C([2H])([2H])C(n1cc(-c2ccc(CC(=O)Nc3cc(C(C)(C)C(F)(F)F)on3)cc2)c2c(N)ncnc21)C([2H])([2H])[2H] [Compound T-12] : -1
CC(C)c1cc(-c2ccc(CC(=O)Nc3cc(C(C)(C)C(F)(F)F)on3)cc2)c2c(N)ncnn12 [Compound T-5] : -1
CC(C)n1nc(-c2ccc(CC(=O)Nc3cc(C(C)(C)C(F)(F)F)on3)c(F)c2)c2c(N)ncnc21 [Compound T-6] : 1

Prompt line: Dear colleague, could you confirm whether GI50 of CC(C)n1cc(-c2ccc(CC(=O)Nc3cc(C(C)(C)C(F)(F)F)on3)cc2)c2c(N)ncnc21 [Compound T-3] falls below 4 nM? Thanks.
Response line: 1

---

# testedOn: Ba/F3 KIF5B-RET^V804L cells (Homo sapiens, UniProt P07949, V804L, cells depend on it)
# Construct: Ba/F3 KIF5B-RET^V804L IC50 (nM); other: CellTiter-Glo, 72 hrs; fused on or other part: P33176 (Kinesin-1 heavy chain)
# Sequence (P07949 whole entry V804L, the tested form may be a part): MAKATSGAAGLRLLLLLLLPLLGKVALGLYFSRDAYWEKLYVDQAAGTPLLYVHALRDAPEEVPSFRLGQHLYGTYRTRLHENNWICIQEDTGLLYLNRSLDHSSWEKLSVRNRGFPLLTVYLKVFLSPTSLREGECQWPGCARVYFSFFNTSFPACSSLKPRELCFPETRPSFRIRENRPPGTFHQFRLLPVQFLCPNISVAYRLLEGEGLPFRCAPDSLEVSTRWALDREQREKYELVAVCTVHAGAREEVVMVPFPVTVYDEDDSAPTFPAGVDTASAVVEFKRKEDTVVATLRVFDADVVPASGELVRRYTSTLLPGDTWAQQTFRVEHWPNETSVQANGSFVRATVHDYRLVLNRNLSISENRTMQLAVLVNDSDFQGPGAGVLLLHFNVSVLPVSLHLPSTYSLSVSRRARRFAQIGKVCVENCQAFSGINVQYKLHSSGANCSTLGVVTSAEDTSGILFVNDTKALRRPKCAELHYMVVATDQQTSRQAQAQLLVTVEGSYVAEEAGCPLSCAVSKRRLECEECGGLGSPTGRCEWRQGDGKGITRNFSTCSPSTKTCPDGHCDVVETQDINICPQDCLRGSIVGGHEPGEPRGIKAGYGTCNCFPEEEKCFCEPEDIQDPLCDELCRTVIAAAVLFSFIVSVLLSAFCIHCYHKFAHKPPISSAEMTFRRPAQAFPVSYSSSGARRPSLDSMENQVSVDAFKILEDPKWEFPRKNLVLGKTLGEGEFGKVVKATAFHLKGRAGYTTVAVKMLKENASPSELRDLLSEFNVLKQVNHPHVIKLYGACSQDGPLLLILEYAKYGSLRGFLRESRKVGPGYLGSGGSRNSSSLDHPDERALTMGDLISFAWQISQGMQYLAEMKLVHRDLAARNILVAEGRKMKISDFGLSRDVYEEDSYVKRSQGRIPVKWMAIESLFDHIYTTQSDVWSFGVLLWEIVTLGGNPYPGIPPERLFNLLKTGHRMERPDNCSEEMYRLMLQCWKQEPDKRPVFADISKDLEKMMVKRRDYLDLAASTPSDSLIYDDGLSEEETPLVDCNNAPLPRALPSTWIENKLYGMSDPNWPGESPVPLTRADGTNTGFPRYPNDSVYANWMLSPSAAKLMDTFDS
# assayDetails: Cytotoxicity assay (CellTiter-Glo), Ba/F3 KIF5B-RET V804L
# Assay type: cell-based
# measurementContext: CellTiter-Glo, 72 hrs; read-out: Ba/F3 KIF5B-RET^V804L IC50
# Method: Inhibitory effects of example compounds on the activity of Ba/F3 parental generation, Ba/F3 KIF5B-RET, Ba/F3 KIF5B-RET^V804M, Ba/F3 KIF5B-RET^V804L, Ba/F3 KIF5B-RET^G810R, Ba/F3 FLT3-ITD, Ba/F3 FLT3-ITD^D835Y, Ba/F3 FLT3-ITD^F691L cells were determined. […] 1. Cells in the logarithmic growth phase were harvested and counted with a […]. Cell viability was detected by a trypan blue exclusion method, ensuring that cell viability was 90% or more; 2. […] 1. […] Luminescence value was read. […]
# reported log10 of GI50; entries follow
Reminder: these figures are log10 of reported GI50, in nM before transformation.

The observed log10 of GI50 for "CC(C)n1cc(-c2ccc(CC(=O)Nc3cc(C(C)(C)C(F)(F)F)on3)cc2)c2c(N)ncnc21" when tested with Ba/F3 KIF5B-RET^V804L cells (Homo sapiens, UniProt P07949, V804L, cells depend on it) stands at 0.56

The observed log10 of GI50 for "CC(C)n1nc(-c2ccc(CC(=O)Nc3cc(C(C)(C)C(F)(F)F)no3)cc2)c2c(N)ncnc21" when tested with Ba/F3 KIF5B-RET^V804L cells (Homo sapiens, UniProt P07949, V804L, cells depend on it) stands at 0.18

The observed log10 of GI50 for CC(C)n1nc(-c2ccc(NC(=O)Nc3cc(C(F)(F)F)ccc3F)cc2)c2c(N)ncnc21 [AD80, reference compound] when tested with Ba/F3 KIF5B-RET^V804L cells (Homo sapiens, UniProt P07949, V804L, cells depend on it) stands at 0.96

The observed log10 of GI50 for "[2H]C([2H])([2H])C(n1nc(-c2ccc(CC(=O)Nc3cc(C(C)(C)C(F)(F)F)no3)cc2)c2c(N)ncnc21)C([2H])([2H])[2H]" when tested with Ba/F3 KIF5B-RET^V804L cells (Homo sapiens, UniProt P07949, V804L, cells depend on it) stands at 0.79

The observed log10 of GI50 for "CC(C)c1cc(-c2ccc(CC(=O)Nc3cc(C(C)(C)C(F)(F)F)on3)cc2)c2c(N)ncnn12" when tested with Ba/F3 KIF5B-RET^V804L cells (Homo sapiens, UniProt P07949, V804L, cells depend on it) stands at 1.29
